PROTOCOL TEXT: yeast display, Sf9 membrane polyspecificity reagent, FACS + sequencing; frameworks hold sequencing errors
PROPERTY LABEL: polyreactivity (PSR sort gate)

Known results for sequences:
QVQQRESGGGLVQAGGSLSLSCAASGTIFYSRYMGWYRQAPGKEREFVASISSGGNTNYADSVKGRCTISRDNAKNTVYLQMNSLKPEVTAVYYCAVNTGLITTFPFWGQATQVTVSS high polyreactivity
QVQLVESVGGLLQAGGSLRLSCAASGSIFRGYAMGWYRQAPGKERDLVAAISWSGGSTYYADSVKGRFTISRDNAKNTVYLQMNRLKPEDTAVYYCAADRVVFGYWYYYWGQGTQVTVSS high polyreactivity
QVQLVESGGGLVQAGGSLRLSCAASGRTFQFYAMGWYRQAPGKERELVAAIDLRGGSTYYADSVKGRFTISRDNAKNTVYLQMNSLKPEDTAVYYCNATRSKFGYFYRYDYWGQGTQVTVSS low polyreactivity
QVQLVESGGGLVQAGGSLRLSCADSGRIIYKNAMGWYRQAPGKERELVAAITSSGGSTYYADSVKGRFTISRDNAKNTVYLQMNSLTPVDTAVYYCAAYAYVRFGKLNYWGQGTQVTVSS low polyreactivity
QVQLQESGGGQVQAGGSLRQSCAASGSIFQATYMGWDRQAPSKEREFVASITYGSITNYADSVKGRFTIGRDNAKDTWYLQMNSLKPEDAAVYYCAVDRHYIPAFHYWGQGTQVNVSS low polyreactivity
QVQLVESGGGLVHAGGSLRLSCAACGTTFINYAMGWYRQAPGKVRELVAVITSDDGSTYYADSVKGRFTISRDNAKNTVYLQMNSLKPEDTAVYYCAADYYDQRYRPGPWYDYWGQGTQVTVSS low polyreactivity
QVQLLESGGGLVQAGGSLRLSCAPSGRIFGYYAMGWYRQEPGKERELVAAISRGGSTNYADSVKGRFTISRDNAKNTVYLQMNSLKPEDTAVYYCAALVYRSYNNYYWGQGTQVTVSS high polyreactivity
QVQLGESGGGLVQAGGSLRLSCAASGFTFQEYAMGWYRQAPGKDRELVAAITSGTTTNYADSVKGRFTISRDNAKNTVYLQMNSLKPEDTAVYYCNVRRQSGRYRVYEYDYWGQGTQVTVSS low polyreactivity
QVQLVESGGGLVQAGGTLRLSCAASGSIFGNYAMGWDRQAPGKERELVAGISKSGGRTYYADSVKGRFTISRDNAKNTVYLQMNSLKPEDTAVYYCNALVTRYQSLDRLGDYWGQGTQVTVSS high polyreactivity
QVQLVESWGGLVQAGGSLRLSCAASGSIFPWYAMGWYREAPGKERELVAAISKSGAGTYYADSVKGRFTISRDNAKNTVYLQMNSLKPEDTAVYYCNAVYRKTSYGYWGQGTQVTVSS high polyreactivity

Proceeding to the next sequence to report its polyreactivity (PSR sort gate).
(Q) Please report the measured polyreactivity (PSR sort gate) for QVQLVESGGGLVQAGGSLRLSCAASGRTFARYAMGWYRQAPGKERELVAVISRTGSTYYADSVKGRFTISRDNAKNTVYLQMNSLKPEDTAVYYCATVYYYLAYGWSYSDMDYWGQGTQVTVSS
(A) high polyreactivity

* * *

PROTOCOL TEXT: yeast display, Sf9 membrane polyspecificity reagent, FACS + sequencing; frameworks hold sequencing errors
PROPERTY LABEL: polyreactivity (PSR sort gate)

QVQLVESGGGLVQAGGSLRLSCAASGLTFYAYAMGWYRQAPGKERELVAAISSRGGRTYYADSVKGRFTISRDNAKNTVYLQMNRLKPEDTAVYYCAARIYRYDTTVVPRYDYWGQGTQVTVSS high polyreactivity
QVQLVESGGGLVQAGGSLRLSCAASGRTFARYAMGWYRQAPGKERELVAAITRGGSTKYADSVKGRFTISRDNAKNTVYLQMNSLKPEDTAVYYCNKVIVQYTLDRGYWGQGTQVTVSS high polyreactivity
